Data provenance is ChEMBL document CHEMBL3301458.

# TARGET_DESC: UniProt Q12809
# Sequence (Q12809 whole entry): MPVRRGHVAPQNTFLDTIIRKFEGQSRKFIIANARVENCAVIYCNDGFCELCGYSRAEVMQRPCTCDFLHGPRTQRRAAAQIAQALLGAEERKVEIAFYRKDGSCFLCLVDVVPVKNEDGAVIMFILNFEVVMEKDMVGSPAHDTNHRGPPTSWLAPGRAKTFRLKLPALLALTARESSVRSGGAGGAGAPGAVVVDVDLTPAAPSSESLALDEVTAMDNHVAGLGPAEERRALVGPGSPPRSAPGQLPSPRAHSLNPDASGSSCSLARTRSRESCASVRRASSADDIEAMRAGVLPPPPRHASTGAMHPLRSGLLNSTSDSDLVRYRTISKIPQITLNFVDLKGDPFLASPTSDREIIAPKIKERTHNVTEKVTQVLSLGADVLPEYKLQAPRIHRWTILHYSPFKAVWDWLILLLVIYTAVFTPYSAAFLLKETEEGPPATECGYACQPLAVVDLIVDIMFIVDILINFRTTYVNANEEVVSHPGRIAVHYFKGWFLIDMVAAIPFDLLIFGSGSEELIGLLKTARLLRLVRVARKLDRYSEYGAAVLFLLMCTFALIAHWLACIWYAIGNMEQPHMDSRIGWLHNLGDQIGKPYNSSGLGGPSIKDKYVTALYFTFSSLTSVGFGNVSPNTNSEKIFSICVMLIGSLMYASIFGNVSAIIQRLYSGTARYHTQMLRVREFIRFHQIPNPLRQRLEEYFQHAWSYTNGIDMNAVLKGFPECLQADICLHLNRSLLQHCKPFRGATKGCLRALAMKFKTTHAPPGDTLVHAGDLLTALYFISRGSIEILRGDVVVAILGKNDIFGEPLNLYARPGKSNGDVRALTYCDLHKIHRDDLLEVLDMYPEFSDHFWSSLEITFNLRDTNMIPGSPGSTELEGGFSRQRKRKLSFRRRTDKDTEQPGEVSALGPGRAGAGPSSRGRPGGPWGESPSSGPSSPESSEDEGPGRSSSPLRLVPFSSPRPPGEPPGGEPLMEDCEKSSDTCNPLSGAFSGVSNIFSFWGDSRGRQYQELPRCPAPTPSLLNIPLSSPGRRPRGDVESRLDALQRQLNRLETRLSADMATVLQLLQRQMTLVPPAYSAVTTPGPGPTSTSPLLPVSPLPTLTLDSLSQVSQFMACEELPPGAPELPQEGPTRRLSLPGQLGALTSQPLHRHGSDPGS
# RUN_DESCRIPTION: in vitro
# Description: MMV: Malaria Box compounds were tested for inhibition of the human ether a go-go related gene (hERG), Kv11.1 channel, using IonWorks 384-well patch clamp electrophysiology at 11.1uM (3 independent assay plates up to 12 cells per concentration).
The source made the active and inactive calls. How the calls were made is not given here.
Outcome codes: label 1 = active, label 0 = inactive

• COc1ccc2nc(C)cc(Nc3ccccc3O)c2c1 = label 1
• FC(F)(F)c1ccc(Nc2nnnc3ccccc23)cc1 = label 0
• CC(C)(C)c1ccc(C2CC3=Nc4ccccc4N(C(=O)c4ccccc4Cl)C(c4ccc(F)cc4)C3=C(O)C2)cc1 (stereo not given) = label 1
• CC(C)CCNCC(O)Cn1c2ccccc2c2ccccc21 (stereo not given) = label 1
• COc1cccc(-c2nn(C)c3sc(C(=O)NCCN4CCN(c5ccccc5F)CC4)cc23)c1 = label 1
• Cc1ccc(NC(=O)Nc2cccc(Cl)c2)cc1F = label 0
• N=c1n(CCN2CCCCC2)c2ccccc2n1CC(=O)c1ccc(Cl)c(Cl)c1 = label 0
• Oc1c(C(Nc2ccccn2)c2cccc(Oc3ccccc3)c2)ccc2cccnc12 (stereo not given) = label 1
• Oc1ccc2ccccc2c1CNc1nc2ccccc2[nH]1 = label 0
• CC1CC2=C(CC1CNCCCN(C)C)C(C)(C)CCC2 (stereo not given) = label 1
• CC1CN(C(=O)c2sc3ccccc3c2Cl)CC(C)O1 (stereo not given) = label 0
• N=c1n(CCN2CCCCC2)c2ccccc2n1CC(O)c1cccc(Br)c1 (stereo not given) = label 1
• CC(=O)Nc1nnc(SCc2c(C)cc(C(C)(C)C)cc2C)s1 = label 0
• COc1ccc2c(c1)C1(Nc3ccccc3-c3nc4ccccc4n31)C(=O)N2 (stereo not given) = label 0
• c1ccc(/C2=N/c3ccccc3/N=C(/c3ccccc3)c3ccccc32)cc1 = label 0
• c1ccc(CNc2nc(Nc3ccccc3)nc3ccccc23)cc1 = label 1
• O=C1c2ccccc2C2=Nc3ccccc3SC(c3cccc(F)c3)C12 (stereo not given) = label 0
• COc1cccc(C(=O)Nc2ccc(-c3nc4ccccc4[nH]3)cc2)c1 = label 0
• CCCCCC(=O)N1c2ccccc2N=C2CC(c3ccc(OC)c(OC)c3)CC(O)=C2C1c1ccc(C(F)(F)F)cc1 (stereo not given) = label 0
• CSC1=NC(=Nc2c(C)cccc2C)C2(CCC(C(C)(C)C)CC2)N1c1ccc(Cl)cc1 (stereo not given) = label 0
• Oc1ccc(Cl)cc1CNc1nc2ccccc2[nH]1 = label 1
• C=CCc1c(C)nc2ccccc2c1O = label 0
• COc1ccccc1CNC(=O)CCn1c(=O)[nH]c2ccccc2c1=O = label 0
• CCOc1cc(Br)c(C(C)NC(=O)c2cccc(OC)c2)cc1OCC (stereo not given) = label 0
• Cc1ccccc1OCCSc1nc2ccc(NC(=O)c3ccccc3)cc2s1 = label 0
• COc1cc2c3cc1Oc1c(OC)c(OC)cc4c1C(Cc1ccc(O)c(c1)Oc1ccc(cc1)CC3N(C)CC2)N(C)CC4 (stereo not given) = label 1
• O=C(NC(c1ccccc1)c1ccc2cccnc2c1O)c1ccccc1 (stereo not given) = label 0
• Cc1ccc(C)c(Cn2c(N3CCC(C(=O)NCc4cccs4)CC3)nc3ccccc32)c1 = label 1
• CNCCCNc1ccnc2cc(Cl)ccc12 = label 0
• CCOC(=O)C1(Cc2ccccc2)CCN(Cc2cccc(OC)c2O)CC1 = label 1
• CCOc1cc(Cl)c(C(C)NC(=O)c2ccccc2)cc1OCC (stereo not given) = label 0
• CC(O)(c1ccc(Cl)cc1)C(CN1CCCCC1)c1ccccc1 (stereo not given) = label 1
• CCOC(=O)c1c[nH]c2c(CC)cccc2c1=O = label 0
• COc1cc2cc(C(=O)Nc3ccccc3)c(N)nc2cc1OC = label 1
• O=C1CC(O)(C(F)(F)C(F)(F)F)Oc2ccccc21 (stereo not given) = label 0
• COc1ccc(-c2cc(=O)oc3c4c(ccc23)OCN(Cc2ccc(F)cc2)C4)cc1 = label 0
• COc1ccc(C2N(C)c3ccccc3N2C)cc1 = label 0
• CCCCc1c(C)nc2c(OC)cccc2c1O = label 0
• Cc1cc(=O)oc2c1ccc1oc(C(=O)c3ccccc3)c(C)c12 = label 0
• O=C(Nc1ccsc1C(=O)NC1CCCCC1)c1ccc(F)cc1 = label 0
